system: DLD-1; assay: NCI tumour cell line growth inhibition, 48 h
The source made the active and inactive calls. Cut-off read from the data, not from the text of the source: active = GI50 up to about 1.1 µM and inactive = higher. Starred links: 1 amine or outer side, 2 acyl side, 3 side chain; linkers in the order of their positions; H or OH if unused. Positions of bridges follow the written chain, without caps; N, C: chain ends. Non-standard residues stand in square brackets, D forms with d. Residues, ends and D or L forms follow the SMILES beside them. Chains are numbered I, II in the order given. Actinocin(1to9) = Cc1c2oc3c(C)ccc(C(=O)[*:2])c3nc-2c(C(=O)[*:1])c(N)c1=O; aThr = C[C@H](O)[C@H](N)C(=O)O; NMeV = CN[C@H](C(=O)O)C(C)C; Sar = CNCC(=O)O
// one of class 1 (active), class 0 (inactive), no free text

The following compounds have reported results that may help.
| compound | measurement target | class label |
| --- | --- | --- |
| CC(C)(C)OC(=O)N1N=NC2C3OC(CC3=O)C21 (stereo unspecified) | DLD-1 | class 0 |
| COc1ccc(-c2c(C3=NCCN3)nnn2-c2ccccc2)cc1 | DLD-1 | class 0 |
| CCC(=O)OC[n+]1ccc2c(C)c3[nH]c4ccccc4c3c(C)c2c1 | DLD-1 | class 1 |
| O=C1c2ccccc2N2OC3C4CCC(C4)C3C12c1ccccc1 (stereo unspecified) | DLD-1 | class 0 |
| Cc1c2oc3c(C)ccc(C(=O)N[C@@H]4C(=O)N[C@H](C(C)C)C(=O)N5CCC[C@H]5C(=O)N(C)CC(=O)N(C)[C@@H](C(C)C)C(=O)O[C@H]4C)c3nc-2c(C(=O)N[C@@H]2C(=O)N[C@H](C(C)C)C(=O)N3CCC[C@H]3C(=O)N(C)CC(=O)N(C)[C@@H](C(C)C)C(=O)O[C@H]2C)c(N)c1=O (I: [aThr][dV]P[Sar][NMeV] / II: [aThr][dV]P[Sar][NMeV]; ester I:1-I:C, II:1-II:C; linker I:N-II:N via Actinocin(1to9)) | DLD-1 | class 1 |

Problem: Which outcome was assigned to CSC1=Nc2ccccc2N=C(c2ccccc2)C1 in this test?
Solution: class 0

Problem: Which outcome was assigned to CCSc1nc2cccc([N+](=O)[O-])c2n1CC in this test?
Solution: class 0

Problem: Which outcome was assigned to COC1(OC)C2(Cl)C3=CCCC=C3C1(Cl)C(Cl)=C2Cl in this test?
Solution: class 0

Problem: Which outcome was assigned to CC(C)CCS(=O)(=O)OCCCCOS(=O)(=O)CCC(C)C in this test?
Solution: class 0

Problem: Which outcome was assigned to CC1CN1c1c(C(=O)/C=C/c2ccc(F)cc2)c(-c2ccccc2)nn(C)c1=O (stereo unspecified) in this test?
Solution: class 0

Problem: Which outcome was assigned to COc1cc(/C=C/C(=O)c2cccc3ccccc23)cc(OC)c1OC in this test?
Solution: class 0
